- Test system: HL-60
- EXPERIMENT SUMMARY: NCI tumour cell line growth inhibition, 48 h
Calls of active or inactive are those of the source. Rule as the data show it: active = GI50 up to about 1.1 µM and inactive = higher.
What GI50 was measured for each of the following?

Inquiry: # get_value(readout='GI50', item= Cc1ccc(-c2cc(-c3ccco3)nc(N)n2)o1 )
Reply text: > 100 µM (inactive)

Inquiry: # get_value(readout='GI50', item= CCOC(=O)C(SCCO)C(C(=O)OCC)n1ccc(N)nc1=O (stereo unspecified) )
Reply text: > 100 µM (inactive)

Inquiry: # get_value(readout='GI50', item= Cc1ccc(S(=O)(=O)N2CCN(C=S)CC2)cc1 )
Reply text: > 100 µM (inactive)

Inquiry: # get_value(readout='GI50', item= Oc1cc(-c2ccc(Cl)cc2)cn2c1nc1ccccc12 )
Reply text: 2.66 µM (inactive)

Inquiry: # get_value(readout='GI50', item= CCCSc1nc(COC(=O)NC)c(COC(=O)NC)n1C )
Reply text: 29.4 µM (inactive)

Inquiry: # get_value(readout='GI50', item= Oc1ccc(-c2nc(-c3ccc4ccccc4n3)c(-c3ccc(F)cc3)[nH]2)cc1 )
Reply text: 5.94 µM (inactive)

Inquiry: # get_value(readout='GI50', item= O=C1C2=C(c3ccccc31)C(c1ccccc1Cl)N1C(=O)CCSC1=N2 (stereo unspecified) )
Reply text: > 100 µM (inactive)

Inquiry: # get_value(readout='GI50', item= CC(=O)Nc1c(C)cc(OCC(=O)O)cc1C )
Reply text: > 100 µM (inactive)

Inquiry: # get_value(readout='GI50', item= COc1cc(/C=C/C(=O)c2sc(-n3nc(-c4ccccc4)cc3-c3ccccc3)nc2C)ccc1O )
Reply text: 49.9 µM (inactive)

Inquiry: # get_value(readout='GI50', item= NNC(=O)c1c(-c2cccnc2)cnc2ccccc12 )
Reply text: > 100 µM (inactive)

Inquiry: # get_value(readout='GI50', item= COC(=O)[C@@H]1CC(C(CN)c2cn(C(=O)OC(C)(C)C)c3ccccc23)C(=O)N1C(=O)OC(C)(C)C (stereo partly specified) )
Reply text: 21.8 µM (inactive)

###

What GI50 was measured for each of the following?
- Tested on: OVCAR-3
- EXPERIMENT SUMMARY: NCI tumour cell line growth inhibition, 48 h
The source made the active and inactive calls. No stated cut-off is given here; in the data, active = GI50 up to about 1.1 µM and inactive = higher.

Inquiry: # get_value(readout='GI50', item= CCCCCCC(=O)C/C(=N/NC(N)=S)C(=O)NC1C2CC3CC(C2)CC1C3 (stereo unspecified) )
Reply text: > 100 µM (inactive)

Inquiry: # get_value(readout='GI50', item= Cc1cccc(NC(Nc2cccc(C)c2)=C(C(Cl)=C(Cl)Cl)[N+](=O)[O-])c1 )
Reply text: 9.31 µM (inactive)

Inquiry: # get_value(readout='GI50', item= Cc1cc(Cl)nc(Nc2nc3ccccc3[nH]2)n1 )
Reply text: > 100 µM (inactive)

Inquiry: # get_value(readout='GI50', item= CC[C@@H](C)[C@@H]1NC(=O)C(C(C)=O)=C1O )
Reply text: 27.6 µM (inactive)

Inquiry: # get_value(readout='GI50', item= O=C1CS(=O)(=O)C(c2cccc(Oc3ccccc3)c2)N1c1ccc(Cl)cc1 (stereo unspecified) )
Reply text: 24.2 µM (inactive)

Inquiry: # get_value(readout='GI50', item= CCCCCCCC/C=C\CCCCCCCCCCCC(=O)O )
Reply text: 17.8 µM (inactive)

Inquiry: # get_value(readout='GI50', item= CN(C)CCNC(=O)c1cccc2nc3c(nc12)-c1ccccc1C3=O )
Reply text: 16.6 µM (inactive)

Inquiry: # get_value(readout='GI50', item= CC(C)[C@@H]1ON1C(C)c1ccccc1 (stereo partly specified) )
Reply text: > 100 µM (inactive)

Inquiry: # get_value(readout='GI50', item= CC(C)CCCC(C)[C@H]1CCC2[C@@H]3CCC4Cc5nc6c(nc5C[C@]4(C)C3CC[C@@]21C)CC1CC[C@@H]2C(CC[C@@]3(C)C2CC[C@@H]3C(C)CCCC(C)C)[C@@]1(C)C6 (stereo partly specified) )
Reply text: > 100 µM (inactive)

Inquiry: # get_value(readout='GI50', item= CC(C)(C)N(Cc1ccccc1)C(=O)/C=C\[S+]([O-])c1ccccc1 (stereo unspecified) )
Reply text: 2.48 µM (inactive)

Inquiry: # get_value(readout='GI50', item= COc1cc(/C=C2/SC(c3ccccc3)N(c3ccccc3)C2=O)cc(OC)c1OC (stereo unspecified) )
Reply text: 65.6 µM (inactive)

Inquiry: # get_value(readout='GI50', item= O=C1Nc2ccc(Br)cc2/C1=N/S(=O)(=O)O )
Reply text: 40.7 µM (inactive)

Inquiry: # get_value(readout='GI50', item= Oc1ccc(-c2nc(-c3ccc4ccccc4n3)c(-c3ccc(F)cc3)[nH]2)cc1 )
Reply text: 6.19 µM (inactive)

Inquiry: # get_value(readout='GI50', item= N#Cc1c(N)nc(SCc2ccccc2)c(C#N)c1-c1ccc(O)cc1 )
Reply text: 14.6 µM (inactive)

Inquiry: # get_value(readout='GI50', item= CC1=NNC(=O)C1C1CC(c2c[nH]c3ccccc23)=NNC1=O (stereo unspecified) )
Reply text: > 100 µM (inactive)

Inquiry: # get_value(readout='GI50', item= CCCCCCCC(=O)NS(=O)(=O)c1ccccc1 )
Reply text: > 100 µM (inactive)

Inquiry: # get_value(readout='GI50', item= Cc1cc2c(cc1C)N1C(Cl)=C3CCCCC3=C(C#N)C1N2 (stereo unspecified) )
Reply text: 16.7 µM (inactive)

Inquiry: # get_value(readout='GI50', item= O=C(CSCC(=O)N/N=C\c1ccc(-c2ccccc2)cc1)N/N=C\c1ccc(-c2ccccc2)cc1 )
Reply text: 16.1 µM (inactive)

Inquiry: # get_value(readout='GI50', item= COc1ccc(CC(COS(=O)(=O)c2ccc(C)cc2)NS(=O)(=O)c2ccc(C)cc2)cc1 (stereo unspecified) )
Reply text: 9.55 µM (inactive)

Inquiry: # get_value(readout='GI50', item= CN(C)C(=S)C(Cl)(c1ccccc1)c1ccccc1 )
Reply text: 82 µM (inactive)

Inquiry: # get_value(readout='GI50', item= CN(/N=C\c1ccnc2ccccc12)c1ccc([N+](=O)[O-])cc1 )
Reply text: > 100 µM (inactive)
